Taken from paper doi:10.1101/2024.08.25.609621.

Study target: SARS-CoV-2 NSP3 macrodomain (Mac1) (Severe acute respiratory syndrome coronavirus 2)
Protocol details: biochemical
Assay type: binding
Condition details: preliminary screen, compound at 200 μM, mean of 3-4 technical replicates; read-out: % competition in HTRF assay
Measure name: inhibition at 200 µM

Compound	Reported
Cc1nn(C)cc1C1CCC(CO)N1c1ncnc2[nH]ccc12 (centres unmarked)	44%
OCC(Nc1ncnc2[nH]ccc12)C1CCCC1 (centres unmarked)	68%
OCC(CC(F)(F)F)Nc1ncnc2[nH]ccc12 (centres unmarked)	50%
OCC(Cc1ccoc1)Nc1ncnc2[nH]ccc12 (centres unmarked)	64%
O[C@@H]1CNCC[C@H]1Nc1ncnc2[nH]ccc12	< 10%
O=C(O)C(F)(F)F.OCC1C2C=CC(C2)N1c1ncnc2[nH]ccc12 (centres unmarked)	55%
OCC(Cc1ccccn1)Nc1ncnc2[nH]ccc12 (centres unmarked)	34%
OCC(Nc1ncnc2[nH]ccc12)c1ccccc1 (centres unmarked)	54%
CC(C)(C)C1CCC(CO)N(c2ncnc3[nH]ccc23)C1 (centres unmarked)	36%
OCC1CC2(CCOCC2)CN1c1ncnc2[nH]ccc12 (centres unmarked)	39%
OCC(CC1CCCO1)Nc1ncnc2[nH]ccc12 (centres unmarked)	18%

---

Entries and their PanDDA run, TFA/DMSO background map: 1-BDC
Study target: SARS-CoV-2 NSP3 macrodomain (Mac1), P43 crystal form (Severe acute respiratory syndrome coronavirus 2)
Type: binding
Condition details: crystal soak 10 mM; TFA/DMSO background map
Measure name: PanDDA run, TFA/DMSO background map: 1-BDC

Compound	Reported
OCC(Nc1ncnc2[nH]ccc12)c1ccco1 (centres unmarked)	0.08
CCC(Nc1ncnc2[nH]ccc12)C(C)O (centres unmarked)	0.08
OCC(CC(O)c1ccccc1)Nc1ncnc2[nH]ccc12 (centres unmarked)	0.17
CCC(CO)Nc1ncnc2[nH]ccc12 (centres unmarked)	0.14
O=C(O)C(F)(F)F.OCC12CC(CN1c1ncnc3[nH]ccc13)C2	0.12
O=C(O)C(F)(F)F.O[C@H]1CCC[C@@H]1Nc1ncnc2[nH]ccc12	0.09
OCC(Cc1nccs1)Nc1ncnc2[nH]ccc12 (centres unmarked)	0.15
CC1CCN(c2ncnc3[nH]ccc23)C1CO (centres unmarked)	0.18
OC1CCCN(c2ncnc3[nH]ccc23)C1 (centres unmarked)	0.13
OCC(CC1CCOC1)Nc1ncnc2[nH]ccc12 (centres unmarked)	0.15
OCC(Nc1ncnc2[nH]ccc12)C1CCCC1 (centres unmarked)	0.11

---

Entries and their Hill slope
Study target: SARS-CoV-2 NSP3 macrodomain (Mac1) (Severe acute respiratory syndrome coronavirus 2, UniProt P0DTD1)
Protocol details: biochemical
Format: binding
Condition details: HTRF dose-response fit, Mac1

Molecule	Hill slope
Cc1c[nH]c2ncnc(NCC3(O)CCCC3)c12	1.1
Cc1c[nH]c2ncnc(NCC3(O)CCC3)c12	1.0
Cc1c[nH]c2ncnc(NCC(C)(C)O)c12	1.0
CC(C)(O)[C@@H]1CCCN1c1ncnc2[nH]ccc12	1.1
Nc1ncnc2c1ncn2[C@@H]1O[C@H](COP(=O)(O)OP(=O)(O)OC[C@H]2O[C@@H](O)[C@H](O)[C@@H]2O)[C@@H](O)[C@H]1O.[Na].[Na] [ADP-ribose, reference compound]	1.1

---

Study target: SARS-CoV-2 NSP3 macrodomain (Mac1) (Severe acute respiratory syndrome coronavirus 2, UniProt P0DTD1)
Protocol details: biochemical
Type: binding
pKi: −log10 of the molar value.
Measure name: pKi

Item smiles	Measure name	Reported
Cc1c[nH]c2ncnc(NCC3(O)CCCCC3)c12	pKi	4.92

---

Study target: SARS-CoV-2 NSP3 macrodomain (Mac1) (Severe acute respiratory syndrome coronavirus 2)
Protocol details: biochemical
Format: binding

Molecule	Average % competition
O=C(O)C1CN(C(=O)c2ccc3c(c2)OCCO3)CCO1 (centres unmarked) [AVI-323]	7%
O=C(c1cc(C2CCCCC2)[nH]n1)N1CCCC(O)(C(F)(F)F)CC1 (centres unmarked) [AVI-318]	13%
CNS(=O)(=O)c1cc(C(=O)N2CCOc3ccccc32)n(C)c1 [AVI-309]	0%
Cc1ccc(O)c(C(=O)c2cnn3c(N)nnc3c2)c1 [AVI-310]	0%
CCCC1CCCC1C(=O)N[C@H]1CCc2nc(N)sc2C1 (some centres unmarked) [AVI-298]	<10%

---

Measured pIC50, listed per entry.
Study target: SARS-CoV-2 NSP3 macrodomain (Mac1) (Severe acute respiratory syndrome coronavirus 2)
Protocol details: biochemical
Type: binding
Condition details: read-out: HTRF IC50
pIC50: −log10 of the molar value.
Measure name: pIC50

Molecule	Reported
CC(c1ccccc1)C(CO)Nc1ncnc2[nH]ccc12 (stereo not drawn)	5.06
CC(C)(O)C1C2CCC2CN1c1ncnc2[nH]ccc12 (stereo not drawn)	4.62
Cc1c[nH]c2ncnc(NCC(C)(C)O)c12	4.55
O=S1(=O)CCCC(O)(CNc2ncnc3[nH]ccc23)C1 (stereo not drawn)	3.96
CC(C)(CO)Nc1ncnc2[nH]ccc12	3.96
CC(C)(O)[C@H]1CCCN1c1ncnc2[nH]ccc12	5.29

---

Study target: SARS-CoV-2 NSP3 macrodomain (Mac1), P43 crystal form (Severe acute respiratory syndrome coronavirus 2)
Type: binding
Condition details: PanDDA background density correction
Measure name: 1-BDC

Compound	Measure name	Reported
Cc1c[nH]c2ncnc(NCC(C)(C)O)c12 [AVI-3758]	1-BDC	0.14
Cc1c[nH]c2ncnc(NCC3(O)CCC3)c12 [AVI-3571]	1-BDC	0.15
CC(C)(O)[C@@H]1CCCN1c1ncnc2[nH]ccc12 [AVI-1445]	1-BDC	0.12
Cc1c[nH]c2ncnc(NCC3(O)CCCC3)c12 [AVI-3760]	1-BDC	0.16

---

Study target: SARS-CoV-2 NSP3 macrodomain (Mac1) (Severe acute respiratory syndrome coronavirus 2)
Protocol details: biochemical
Format: binding
Condition details: preliminary screen, compound at 200 μM, mean of 3-4 technical replicates; read-out: % competition in HTRF assay
Measure name: inhibition at 200 µM (%)

Compound	Result operator	Reported
CCC1(O)CCN(c2ncnc3[nH]ccc23)C1 (stereo not shown)	=	22
O=C(O)C(F)(F)F.O[C@H]1CCC[C@@H]1Nc1ncnc2[nH]ccc12	=	74
OCC(Nc1ncnc2[nH]ccc12)C1CCOC1 (stereo not shown)	=	35
O=C(O)C(F)(F)F.OC[C@@H]1CC2(CC2)CN1c1ncnc2[nH]ccc12	=	57
OCC(O)C1CCCN1c1ncnc2[nH]ccc12 (stereo not shown)	=	54
CC1CCN(c2ncnc3[nH]ccc23)C1CO (stereo not shown)	=	75
O[C@@H]1CN(c2ncnc3[nH]ccc23)C[C@H]1F	=	15
O=C(O)C(F)(F)F.OC1c2ccccc2CC1Nc1ncnc2[nH]ccc12 (stereo not shown)	<	10
OCC(CC1CCOC1)Nc1ncnc2[nH]ccc12 (stereo not shown)	=	11
OCC(CC(O)c1ccccc1)Nc1ncnc2[nH]ccc12 (stereo not shown)	<	10

---

Study target: SARS-CoV-2 NSP3 macrodomain (Mac1), P43 crystal form (Severe acute respiratory syndrome coronavirus 2)
Format: binding
Condition details: soak concentration 10 mM; TFA/DMSO background map
Measure name: PanDDA run, TFA/DMSO background map: Hit

Compound	Measure name	Reported
O=C(O)C(F)(F)F.OC[C@H]1CC2(CN1c1ncnc3[nH]ccc13)OCCO2	PanDDA run, TFA/DMSO background map: Hit	TRUE
O=C(O)C(F)(F)F.OC[C@@H]1CC2(CC2)CN1c1ncnc2[nH]ccc12	PanDDA run, TFA/DMSO background map: Hit	TRUE
OCC(Cc1cncs1)Nc1ncnc2[nH]ccc12 (centres unmarked)	PanDDA run, TFA/DMSO background map: Hit	TRUE
OCC1CC2(CCC2)CN1c1ncnc2[nH]ccc12 (centres unmarked)	PanDDA run, TFA/DMSO background map: Hit	TRUE
OCC1CC2(CCOCC2)CN1c1ncnc2[nH]ccc12 (centres unmarked)	PanDDA run, TFA/DMSO background map: Hit	TRUE

---

Study target: SARS-CoV-2 NSP3 macrodomain (Mac1) (Severe acute respiratory syndrome coronavirus 2)
Protocol details: biochemical
Assay type: binding
Condition details: preliminary screen, compound at 200 μM, mean of 3-4 technical replicates; read-out: % competition in HTRF assay
Here the recorded inhibition at 200 µM is given for each entry.

Molecule	inhibition at 200 µM
OCC(Cc1cncs1)Nc1ncnc2[nH]ccc12 (stereo not drawn) [AVI-3703]	28%
O=C(O)C(F)(F)F.OCC12CC(CN1c1ncnc3[nH]ccc13)C2 [AVI-3681]	54%
O=C(O)C(F)(F)F.OCC(Nc1ncnc2[nH]ccc12)C(O)C1CCCCC1 (stereo not drawn) [AVI-3687]	33%
CO[C@@H]1C[C@H](CO)N(c2ncnc3[nH]ccc23)C1 [AVI-3656]	41%
CC(C)(O)[C@@H]1CCCN1c1ncnc2[nH]ccc12 [AVI-1445]	75%
O[C@@]1(Cn2ccnn2)CCCN(c2ncnc3[nH]ccc23)C1 [AVI-608]	< 10%
O=C(O)C(F)(F)F.OCC(CC1CCOCC1)Nc1ncnc2[nH]ccc12 (stereo not drawn) [AVI-3676]	< 10%
CC1CC(C(=O)O)CCN1C(=O)c1ccc2c(c1)NC(=O)CO2 (stereo not drawn) [AVI-303]	< 10%
CC(C)(C)C(O)CC(CO)Nc1ncnc2[nH]ccc12.O=C(O)C(F)(F)F (stereo not drawn) [AVI-3714]	< 10%
